- System: CAKI-1
- ASSAY_REMARKS: NCI tumour cell line growth inhibition, 48 h
Activity calls are given as the source filed them. Cut-off read from the data, not from the text of the source: active = GI50 up to about 1.1 µM and inactive = higher.
# valid calls are active, inactive; nothing else

- COMPOUND: "CN(C)[C@@H]1C(O)=C(C(=O)NCN2CCN(C(=N)NC(=N)N)CC2)C(=O)[C@@]2(O)C(O)=C3C(=O)c4c(O)cccc4[C@@](C)(O)[C@H]3C[C@@H]12"
  LABEL_CLASS: "active"
- COMPOUND: "O=S1(=O)C[C@@H](O)[C@H](O)CS1"
  LABEL_CLASS: "inactive"
- COMPOUND: "Cc1c(/C=N/NS(=O)(=O)c2ccccc2)no[n+]1[O-]"
  LABEL_CLASS: "inactive"

input: Call for entry COc1cc(OC)cc(Oc2nc3ccccc3nc2C(F)(F)F)c1 :
output: inactive
